conditionLabel: human gut metagenome, 24 h, 2 µM; also: call rule not given here
propertyMeasured: Bacterial Biotransformation

Check out these entries, answers already filled in.
CCCC(=O)Nc1ccc(OCC(O)CNC(C)C)c(C(C)=O)c1 (stereo not given); Compound metabolized
Cc1ccccc1N1C(=O)c2cc(S(N)(=O)=O)c(Cl)cc2NC1C (stereo not given); Compound NOT metabolized
CN1CCN(C(=O)O[C@H]2c3nccnc3C(=O)N2c2ccc(Cl)cn2)CC1; Compound NOT metabolized
CN1CCc2cccc3c2[C@H]1Cc1ccc(O)c(O)c1-3; Compound NOT metabolized
CCCCC1=NC2(CCCC2)C(=O)N1Cc1ccc(-c2ccccc2-c2nnn[nH]2)cc1; Compound metabolized
CCN1CCCC1CNC(=O)c1cc(S(N)(=O)=O)ccc1OC (stereo not given) [SULPIRIDE]; Compound metabolized
CN1CCC(=C2c3ccccc3CCc3cccnc32)CC1.O=C(O)/C=C\C(=O)O.O=C(O)/C=C\C(=O)O [AZATADINE MALEATE]; Compound NOT metabolized
O=c1n(CCCN2CCN(c3cccc(Cl)c3)CC2)nc2ccccn12; Compound metabolized

For each entry beneath this line, provide reported Bacterial Biotransformation.
1. Nc1ccc(/N=N/c2ccccc2)c(N)n1
2. O=C(Nc1ccccc1)OCC(CN1CCCCC1)OC(=O)Nc1ccccc1 (stereo not given)
3. CN(C)CCc1c[nH]c2ccc(Cn3cncn3)cc12.O=C(O)c1ccccc1 [RIZATRIPTAN BENZOATE]
4. CC(Oc1c(Cl)cccc1Cl)C1=NCCN1 (stereo not given)
5. Cc1cc2c(cc1S(N)(=O)=O)S(=O)(=O)CCC2
6. CCN(CC)CCNC(=O)c1cc(Cl)c(N)cc1OC [METOCLOPRAMIDE]

Solution:
1. Compound metabolized
2. Compound NOT metabolized
3. Compound NOT metabolized
4. Compound metabolized
5. Compound NOT metabolized
6. Compound NOT metabolized
